src = PubChem BioAssay (NCI)

Tested on: MDA-MB-468 breast
assay-method-text: NCI tumour cell line growth inhibition, 48 h
The entries below come with measured TGI values attached.

molecule: O=C(N/N=C\c1ccc(N(CCCl)CCCl)cc1)c1cccnc1
qualifying-sign: =
TGI / µM: 59.6

molecule: O=c1oc2ccc(F)cc2c(=O)n1-c1ccc(I)cc1F
qualifying-sign: =
TGI / µM: 2.45

molecule: N#Cc1c(N)c(C(=O)c2ccc3c(c2)OCCO3)n2c1CCCC2
qualifying-sign: =
TGI / µM: 23.7

molecule: FC(F)(F)c1cccc(Oc2ccc(Nc3ncnc4ccc(OCCCN5CCOCC5)cc34)cc2Cl)c1
qualifying-sign: =
TGI / µM: 2.85

molecule: CC1(C)CC[C@]2(C(=O)NCCNCCN)CC[C@]3(C)C(=CC[C@@H]4[C@@]5(C)CCC(=O)C(C)(C)[C@@H]5CC[C@]43C)[C@@H]2C1
qualifying-sign: =
TGI / µM: 3.29

molecule: COc1nc2c(c(=O)n1C)CN(c1ccccc1)C(=O)CN2C
qualifying-sign: =
TGI / µM: 80.9

molecule: COc1cc2nc(Cl)nc(Nc3cccc(C4=Nc5c(N)nc(N)nc5NC(c5ccc(F)cc5)C4)c3)c2cc1OC (stereo unspecified)
qualifying-sign: =
TGI / µM: 3.39

molecule: C[C@]1(c2nc3c(C(N)=O)cccc3[nH]2)CCCN1
qualifying-sign: >
TGI / µM: 100

molecule: CC[C@H](C)[C@H](NC(=O)c1ncccn1)C(=O)N(C)[C@H](C[C@@H](OC(C)=O)c1nc(C(=O)N[C@@H](Cc2ccccc2)C[C@H](C)C(=O)OC)cs1)C(C)C
qualifying-sign: >
TGI / µM: 25

molecule: CCCCCCCCCCCCCCCCCC1=NC(C)(C)CN1C(C)(C)CO
qualifying-sign: =
TGI / µM: 2.56

molecule: CC1(C)N=C(N)N=C(N)N1c1cccc(CCCCc2ccc(Cl)c(S(=O)(=O)F)c2)c1
qualifying-sign: =
TGI / µM: 24.5
